Reported pIC50 is given for each of the following compounds.
test_method_notes: Antagonist activity at NMDA receptor in ICR mouse synaptoneurosome assessed as inhibition of NMDA/Gly-mediated 45-calcium influx
Format: functional
pIC50: −log10 of the molar value.
metric: pIC50

>>> result("c1ccc(CCNC23OC4C5C6CC(C7C6C4C72)C53)cc1 (centres undefined)")
4.63
>>> result("C[C@]12N[C@H](Cc3ccccc31)c1ccccc12 [DIZOCILPINE]")
5.91
>>> result("c1ccc(CNC23OC4C5C6CC(C7C6C4C72)C53)cc1 (centres undefined)")
5.53
>>> result("O=[N+]([O-])c1ccccc1CNC12OC3C4C5CC(C6C5C3C61)C42 (centres undefined)")
4.42
>>> result("CC12CC3CC(C)(C1)CC(N)(C3)C2 [MEMANTINE]")
5.52
>>> result("OC12CC3C4C5CC6C4C3C1C(NCc1ccccc1)C6C52 (centres undefined)")
4.44
>>> result("O=[N+]([O-])c1cccc(CNC23OC4C5C6CC(C7C6C4C72)C53)c1 (centres undefined)")
4.48
>>> result("COc1cccc(CNC23OC4C5C6CC(C7C6C4C72)C53)c1 (centres undefined)")
4.69
>>> result("NC1C2C3CC4C1C1C2CC3C41 (centres undefined)")
5.39

----------
Species: Mus musculus
test_method_notes: Displacement of [3H]MK-801 from NMDA receptor in ICR mouse synaptoneurosome at 100 uM
The source made the active and inactive calls. The calls are words filed in the database; no cut-off is given here.
metric: Activity

>>> result("CC12CC3CC(C)(C1)CC(N)(C3)C2 [MEMANTINE]")
"90%"
>>> result("c1ccc(CNC23OC4C5C6CC(C7C6C4C72)C53)cc1 (stereo not given)")
"inactive"
>>> result("C[C@]12N[C@H](Cc3ccccc31)c1ccccc12")
"73%"
>>> result("c1ccc(CCNC23OC4C5C6CC(C7C6C4C72)C53)cc1 (stereo not given)")
"inactive"
>>> result("NC1C2C3CC4C1C1C2CC3C41 (stereo not given)")
"inactive"

----------
Species: Mus musculus
test_method_notes: Displacement of [3H]TCP from NMDA receptor in ICR mouse synaptoneurosome at 100 uM
metric: Activity

>>> result("c1ccc(CNC23OC4C5C6CC(C7C6C4C72)C53)cc1 (stereo not given)")
"20%"
>>> result("CC12CC3CC(C)(C1)CC(N)(C3)C2 [MEMANTINE]")
"67%"
>>> result("C[C@]12N[C@H](Cc3ccccc31)c1ccccc12 [DIZOCILPINE]")
"65%"
>>> result("c1ccc(CCNC23OC4C5C6CC(C7C6C4C72)C53)cc1 (stereo not given)")
"44%"

Values compiled from ChEMBL document CHEMBL1139055.
